# target: human GLP-1R (Homo sapiens (Human), UniProt P43220, L260F)
# Sequence (P43220 24-463 L260F): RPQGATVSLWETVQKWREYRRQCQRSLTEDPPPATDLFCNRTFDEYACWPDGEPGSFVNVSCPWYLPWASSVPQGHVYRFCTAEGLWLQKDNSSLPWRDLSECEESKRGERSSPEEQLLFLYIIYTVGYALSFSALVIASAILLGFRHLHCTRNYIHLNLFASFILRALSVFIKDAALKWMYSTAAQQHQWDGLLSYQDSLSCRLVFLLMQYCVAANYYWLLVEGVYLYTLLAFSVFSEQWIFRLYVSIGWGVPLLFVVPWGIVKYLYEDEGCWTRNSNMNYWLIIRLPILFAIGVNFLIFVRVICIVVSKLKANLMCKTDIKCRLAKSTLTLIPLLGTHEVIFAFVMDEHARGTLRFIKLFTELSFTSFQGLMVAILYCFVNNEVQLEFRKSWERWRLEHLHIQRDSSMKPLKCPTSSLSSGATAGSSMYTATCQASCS
# experimentNotes: CHO GLP-1R Clone C6 - Assay 2 (HTRF cAMP agonist assay, low receptor density)
# cond: read-out: Assay 2 EC50; CHO GLP-1R Clone C6 (low receptor density), cAMP HTRF; geometric mean
measuredParameter: pEC50
Please treat pEC50 as minus the base-10 logarithm of the molar concentration.

COCCn1c(CN2CCC(c3cccc4c3OC(C)(c3cccc(F)c3)O4)CC2)nc2ccc(C(=O)O)cc21 (stereo not shown) [Example 31] :: 5.72
CC1(c2ccc(Cl)cc2F)Oc2cccc(C3CCN(Cc4nc5ccc(C(=O)O)cc5n4CCN4CCCC4=O)CC3)c2O1 (stereo not shown) [Example 48] :: 6.55
CNC(=O)Cn1c(CN2CCC(c3cccc4c3OC(C)(c3ccc(Cl)cc3F)O4)CC2)nc2ccc(C(=O)O)cc21 (stereo not shown) [Example 52] :: 6.24
COCCn1c(CN2CCC(c3cccc4c3OC(C)(c3ccccc3)O4)CC2)nc2ccc(C(=O)O)cc21 (stereo not shown) [Example 82] :: 6.00
Cn1c(CN2CCC(c3cccc4c3O[C@@](C)(c3ccc(Cl)cc3F)O4)CC2)nc2ccc(C(=O)O)cc21 [Example 14] :: 7.10
CC1(c2ccc(Cl)cc2F)Oc2cccc(C3CCN(Cc4nc5ccc(C(=O)O)cc5n4C4CCOC4)CC3)c2O1 (stereo not shown) [Example 61] :: 6.62

# ---- query molecule ----
Item: CC1(c2ccc(Cl)cc2F)Oc2cccc(C3CCN(Cc4nc5ccc(C(=O)O)cc5n4C[C@@H]4CCCO4)CC3)c2O1 (stereo partly shown) [Example 79] | pEC50: 7.68

The measured values listed here are drawn from patent US10676465B2.
